The measured values listed here are drawn from patent US10183935B2.

system: Rat Granulosa; assay: Rat Granulosa EC50 FSH (Assay B); format: cell-based; conditions: rat granulosa cells
Kindly supply the reported EC50 values for the records listed here.

Worked cases, answers included:
>>> df
                              smiles_record  metric          reading
0  CCOc1cc(N2CCN(c3ccccc3C)CC2)c(NC(=O)c2coc(C3CC3)n2)cc1C(=O)NCCCN1CCCC1=O    EC50   100 to 1000 nM
1  Cc1ccccc1N1CCN(c2cc3c(cc2NC(=O)c2coc(C4CC4)n2)C(=O)N(CCCN2CCOC2=O)CC3)CC1    EC50   100 to 1000 nM
2  Cc1ccccc1N1CCN(c2cc(Cl)c(C(=O)N[C@H]3CCC[C@H](O)[C@@H]3O)cc2NC(=O)c2coc(C3CC3)n2)CC1    EC50  1000 to 5000 nM
3  COCCOc1cc(N2CCN(c3ccccc3C)CC2)c(NC(=O)c2coc(C3CC3)n2)cc1C(=O)NCCCN1CCCC1=O    EC50   100 to 1000 nM
4  Cc1ccccc1N1CCN(c2cc(Cl)c(C(=O)NCCCN3CCOC3=O)cc2NC(=O)c2coc(C3CC3)n2)CC1    EC50   100 to 1000 nM
5  Cc1ccccc1N1CCN(c2cc(N(C)C)c(C(=O)NCCCN3CCCC3=O)cc2NC(=O)c2coc(C3CC3)n2)CC1    EC50   100 to 1000 nM
6  Cc1cccnc1N1CCN(c2cc(Cl)c(C(=O)NCCCN3CCOC3=O)cc2NC(=O)c2coc(C3CC3)n2)CC1    EC50   100 to 1000 nM

Here is the next item to consider.
Find the measured EC50: item Cc1ccccc1N1CCN(c2cc(F)c(C(=O)NCCCN3CCOC3=O)cc2NC(=O)c2coc(C3CC3)n2)CC1 , target or system Rat Granulosa.
1000 to 5000 nM

###

Target: FSHR (Homo sapiens, UniProt P23945)
Construct: expressed in transfected cells; host or cells: CHO (Cho-FSHR-LUC-1-1-43)
Sequence (P23945 18-695): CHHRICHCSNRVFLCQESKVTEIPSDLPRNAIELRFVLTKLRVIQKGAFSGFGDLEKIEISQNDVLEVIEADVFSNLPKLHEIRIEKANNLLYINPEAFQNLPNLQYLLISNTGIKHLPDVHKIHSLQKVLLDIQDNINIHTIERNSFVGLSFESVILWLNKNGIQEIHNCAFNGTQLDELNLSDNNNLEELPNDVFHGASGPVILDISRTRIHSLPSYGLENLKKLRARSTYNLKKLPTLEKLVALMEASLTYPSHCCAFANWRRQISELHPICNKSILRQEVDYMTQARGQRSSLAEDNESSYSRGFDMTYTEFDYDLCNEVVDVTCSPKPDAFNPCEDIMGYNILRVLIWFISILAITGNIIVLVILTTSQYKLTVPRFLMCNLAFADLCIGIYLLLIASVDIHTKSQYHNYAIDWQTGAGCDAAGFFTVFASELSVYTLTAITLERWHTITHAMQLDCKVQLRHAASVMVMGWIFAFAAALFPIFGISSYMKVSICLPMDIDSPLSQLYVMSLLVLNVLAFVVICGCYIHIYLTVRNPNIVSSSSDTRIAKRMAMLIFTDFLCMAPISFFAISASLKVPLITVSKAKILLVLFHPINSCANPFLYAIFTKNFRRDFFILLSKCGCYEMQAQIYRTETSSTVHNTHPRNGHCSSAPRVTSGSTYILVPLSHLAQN
Assay: EC50 of Cyclic AMP Production in CHO FSHR Cells+EC20 FSH (Assay A)
Type: cell-based
Settings: cAMP HTRF
Metric: EC50

Worked cases, answers included:
                              smiles_record          reading
0  Cc1ccccc1N1CCN(c2cc(Cl)c(C(=O)NCCCN3CCOC3=O)cc2NC(=O)c2coc(C3CC3)n2)CC1         < 100 nM
1  Cc1ccccc1N1CCN(c2cc(Cl)c(C(=O)N[C@H]3CCC[C@H](O)[C@@H]3O)cc2NC(=O)c2coc(C3CC3)n2)CC1         < 100 nM
2  Cc1ccccc1N1CCN(c2cc(C3CC3)c(C(=O)NCCCN3CCCC3=O)cc2NC(=O)c2ccco2)CC1  1000 to 5000 nM
3  Cc1ccccc1N1CCN(c2cc(F)c(C(=O)N[C@@H]3CCC[C@H](C(=O)O)C3)cc2NC(=O)c2coc(C3CC3)n2)CC1         < 100 nM
4  CCOc1cc(N2CCN(c3ccccc3C)CC2)c(NC(=O)c2coc(C3CC3)n2)cc1C(=O)NCCCN1CCCC1=O         < 100 nM

For every listed record, write down its EC50.
1. Cc1ccccc1N1CCN(c2cc3c(cc2NC(=O)c2ccco2)C(=O)N(Cc2cccc(CN(C)C)c2)CC3)CC1
2. Cc1ccccc1N1CCN(c2cc(N(C)C)c(C(=O)NCCCN3CCCC3=O)cc2NC(=O)c2ccco2)CC1
3. CCc1cc(N2CCN(c3ccccc3C)CC2)c(NC(=O)c2coc(C3CC3)n2)cc1C(=O)NCCCN1CCCC1=O
4. COCCOc1cc(N2CCN(c3ccccc3C)CC2)c(NC(=O)c2coc(C3CC3)n2)cc1C(=O)NCCCN1CCCC1=O
5. Cc1ccccc1N1CCN(c2cc(F)c(C(=O)N[C@H]3CCC[C@@H](C(=O)OC(C)(C)C)C3)cc2NC(=O)c2coc(C3CC3)n2)CC1
6. Cc1ccccc1N1CCN(c2cc(N(C)C)c(C(=O)NCCCN3CCCC3=O)cc2NC(=O)c2coc(C3CC3)n2)CC1
7. Cc1ccccc1N1CCN(c2cc(Cl)c(C(=O)NCc3cccc(CN(C)C)c3)cc2NC(=O)c2ccco2)CC1
8. Cc1ccc(F)cc1N1CCN(c2cc(Cl)c(C(=O)NCc3cccc(CN(C)C)c3)cc2NC(=O)c2ccco2)CC1

1: 1000 to 5000 nM; 2: 1000 to 5000 nM; 3: 100 to 1000 nM; 4: 100 to 1000 nM; 5: > 5000 nM; 6: 100 to 1000 nM; 7: > 5000 nM; 8: 1000 to 5000 nM

For every listed record, write down its EC50.
1. Cc1ccccc1N1CCN(c2cc(Cl)c(C(=O)NCCCc3nnn(C)n3)cc2NC(=O)c2coc(C3CC3)n2)CC1
2. Cc1ccccc1N1CCN(c2cc(F)c(C(=O)N[C@H]3CCC[C@@H](C(=O)O)C3)cc2NC(=O)c2coc(C3CC3)n2)CC1
3. Cc1ccc(C)c(N2CCN(c3cc(Cl)c(C(=O)NCc4cccc(CN(C)C)c4)cc3NC(=O)c3coc(C4CC4)n3)CC2)c1
4. Cc1ccccc1N1CCN(c2cc(F)c(C(=O)NCCCN3CCOC3=O)cc2NC(=O)c2coc(C3CC3)n2)CC1
5. Cc1cccnc1N1CCN(c2cc(Cl)c(C(=O)NCCCN3CCOC3=O)cc2NC(=O)c2coc(C3CC3)n2)CC1

1: 100 to 1000 nM; 2: < 100 nM; 3: 1000 to 5000 nM; 4: 100 to 1000 nM; 5: < 100 nM

For every listed record, write down its EC50.
1. Cc1ccccc1N1CCN(c2cc(F)c(C(=O)N[C@H]3CCC[C@H](C(=O)OC(C)(C)C)C3)cc2NC(=O)c2coc(C3CC3)n2)CC1
2. Cc1ccccc1N1CCN(c2cc(C(F)(F)F)c(C(=O)NCCCN3CCCC3=O)cc2NC(=O)c2coc(C3CC3)n2)CC1
3. Cc1ccccc1N1CCN(c2cc3c(cc2NC(=O)c2coc(C4CC4)n2)C(=O)N(CCCN2CCCC2=O)CC3)CC1
4. Cc1ccccc1N1CCN(c2cc3c(cc2NC(=O)c2coc(C4CC4)n2)C(=O)N([C@H]2CCC[C@H](O)[C@@H]2O)CC3)CC1
5. Cc1ccccc1N1CCN(c2cc(O)c(C(=O)NCCCN3CCCC3=O)cc2NC(=O)c2coc(C3CC3)n2)CC1
6. Cc1ccccc1N1CCN(c2cc(F)c(C(=O)NCCCN3CCCC3=O)cc2NC(=O)c2coc(C3CC3)n2)CC1
7. Cc1ccccc1N1CCN(c2cc3ccn(CCCN4CCOC4=O)c(=O)c3cc2NC(=O)c2coc(C3CC3)n2)CC1
8. Cc1ccccc1N1CCN(c2cc(F)c(C(=O)N[C@@H]3CCC[C@H](C(=O)OC(C)(C)C)C3)cc2NC(=O)c2coc(C3CC3)n2)CC1

100 to 1000 nM
100 to 1000 nM
< 100 nM
100 to 1000 nM
100 to 1000 nM
100 to 1000 nM
< 100 nM
100 to 1000 nM
